biological target: UniProt:P29274; assay: Displacement of [3H] ZM241385 from human recombinant A2A adenosine receptor expressed in HeLa cells incubated for 30 mins by radioligand binding competition assay
Sequence (P29274 whole entry): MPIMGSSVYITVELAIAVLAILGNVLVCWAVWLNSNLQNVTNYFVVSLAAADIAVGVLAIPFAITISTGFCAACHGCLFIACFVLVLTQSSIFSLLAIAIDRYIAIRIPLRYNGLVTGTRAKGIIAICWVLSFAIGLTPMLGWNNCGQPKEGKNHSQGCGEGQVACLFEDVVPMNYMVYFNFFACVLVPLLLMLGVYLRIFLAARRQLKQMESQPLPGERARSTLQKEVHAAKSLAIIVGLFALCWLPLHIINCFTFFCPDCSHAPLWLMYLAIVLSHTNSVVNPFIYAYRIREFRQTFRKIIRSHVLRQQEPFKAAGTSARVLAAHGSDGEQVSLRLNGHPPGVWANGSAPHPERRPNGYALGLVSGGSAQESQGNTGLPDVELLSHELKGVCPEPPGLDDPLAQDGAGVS
Under this convention, Fulfilled denotes Ki strictly below 800 nM and Not fulfilled denotes Ki at or above 800 nM.

{"SMILES_RECORD": "Cn1cc(-c2cnc(N)n3nc(-c4nccs4)nc23)ccc1=O", "SYSTEM_UNDER_TEST": "UniProt:P29274", "CATEGORY_LABEL": "Fulfilled"}
{"SMILES_RECORD": "Cn1ccc(-c2nc3c(-c4ccc(=O)n(C)c4)cnc(N)n3n2)n1", "SYSTEM_UNDER_TEST": "UniProt:P29274", "CATEGORY_LABEL": "Not fulfilled"}
{"SMILES_RECORD": "Cc1cnc(-c2nc3c(-c4ccc(=O)n(C)c4)cnc(N)n3n2)s1", "SYSTEM_UNDER_TEST": "UniProt:P29274", "CATEGORY_LABEL": "Fulfilled"}
{"SMILES_RECORD": "Cn1cc(-c2cnc(N)nc2-c2ccco2)ccc1=O", "SYSTEM_UNDER_TEST": "UniProt:P29274", "CATEGORY_LABEL": "Fulfilled"}
{"SMILES_RECORD": "Cc1cccc(-c2nc3c(-c4ccc(=O)n(C)c4)cnc(N)n3n2)n1", "SYSTEM_UNDER_TEST": "UniProt:P29274", "CATEGORY_LABEL": "Not fulfilled"}
{"SMILES_RECORD": "Cc1csc(-c2nc3c(-c4ccc(=O)n(C)c4)cnc(N)n3n2)n1", "SYSTEM_UNDER_TEST": "UniProt:P29274", "CATEGORY_LABEL": "Not fulfilled"}
{"SMILES_RECORD": "Cn1cc(-c2cnc(N)n3nc(-c4ccccn4)nc23)ccc1=O", "SYSTEM_UNDER_TEST": "UniProt:P29274", "CATEGORY_LABEL": "Fulfilled"}
{"SMILES_RECORD": "Cn1cc(-c2cnc(N)n3nc(-c4ccco4)nc23)ccc1=O", "SYSTEM_UNDER_TEST": "UniProt:P29274", "CATEGORY_LABEL": "Fulfilled"}
{"SMILES_RECORD": "Cc1ccc(-c2nc3c(-c4ccc(=O)n(C)c4)cnc(N)n3n2)o1", "SYSTEM_UNDER_TEST": "UniProt:P29274", "CATEGORY_LABEL": "Fulfilled"}

Attribution: ChEMBL document CHEMBL5042554
